assay: Inhibition of HIV-1 latency infected in human U1 cells assessed as increase in p24 expression level incubated for 48 hrs by ELISA; type: functional, cell-based; details: Human immunodeficiency virus 1, U1, 48 h
EC50 reference
recorded-endpoint: EC50 (nM)

INSERT INTO assay_data (smiles_representation, limit_qualifier, endpoint_result) VALUES
  ('CC1=C[C@H]2[C@@]3(O)[C@H](C)C[C@]4(OC(=O)Cc5cccc6ccccc56)[C@H]([C@@H]3C=C(CO)C[C@]2(O)C1=O)C4(C)C', '=', 10.2),
  ('CC(=O)O[C@@]12C[C@@H](C)[C@@]3(O)[C@@H](C=C(CO)C[C@]4(O)C(=O)C(C)=C[C@@H]34)[C@@H]1C2(C)C', '>', 1000);

---

target: Protein kinase C gamma type (Homo sapiens, UniProt P05129); test: Displacement of 3H-PDBu from recombinant human PKCgamma incubated for 25 mins by scintillation counter analysis
recorded-endpoint: Ki

INSERT INTO assay_data (smiles_representation, endpoint_result) VALUES
  ('CC1=C[C@H]2[C@@]3(O)[C@H](C)C[C@]4(OC(=O)Cc5cccc6ccccc56)[C@H]([C@@H]3C=C(CO)C[C@]2(O)C1=O)C4(C)C', '0.65 nM');

---

experiment: Cytotoxicity against human U1 cells assessed as reduction in cell viability incubated for 48 hrs by WST-8 assay; format: toxicity, cell-based
recorded-endpoint: CC50 at 48 h (µM)

INSERT INTO results (compound, endpoint_result) VALUES
  ('CCCCCCCCCCc1ccc2c(c1)N(C)[C@@H](C(C)C)C(=O)NC(CO)C2 (stereo partly specified)', 61.2);

---

experiment: Cytotoxicity against human PBMC cells assessed as reduction in cell viability incubated for 48 hrs by WST-8 assay; assay type: toxicity, cell-based
recorded-endpoint: CC50 at 48 h (µM)

INSERT INTO results (compound, recorded_endpoint, measurement_units, endpoint_result) VALUES
  ('CCCCCCCCCCc1ccc2c(c1)N(C)[C@@H](C(C)C)C(=O)NC(CO)C2 (stereo partly specified)', 'CC50 at 48 h', 'µM', 39.9);

---

test system: Human immunodeficiency virus 1; assay: Reversal of HIV-1 latency in human J-Lat 8.4 cells assessed as increase in GFP expression incubated for 24 hrs by flow cytometry; type: functional, organism-based; settings: Human immunodeficiency virus 1, J-Lat 8.4, 24 h
recorded-endpoint: EC50 (nM)

INSERT INTO results (smiles_representation, recorded_endpoint, endpoint_result) VALUES
  ('CC(=O)O[C@@]12C[C@@H](C)[C@@]3(O)[C@@H](C=C(CO)C[C@]4(O)C(=O)C(C)=C[C@@H]34)[C@@H]1C2(C)C', 'EC50', 11);

---

experiment: Cytotoxicity against human J-Lat C11 cells assessed as reduction in cell viability incubated for 72 hrs by CCK-8 assay; format: toxicity, cell-based
recorded-endpoint: CC50 at 72 h (nM)

INSERT INTO assay_data (compound, endpoint_result) VALUES
  ('CCCCCCCCCCCC(=O)OCC1=C[C@H]2C(=O)[C@]3(C=C(C)[C@H](OC(=O)CC(C)C(C)C)[C@@]3(O)[C@@H]1O)[C@H](C)CC1C2C1(C)C (stereo partly specified)', 68.5);

---

Molecular target: Protein deacetylase HDAC6 (Homo sapiens)
Sequence (Q9UBN7 whole entry): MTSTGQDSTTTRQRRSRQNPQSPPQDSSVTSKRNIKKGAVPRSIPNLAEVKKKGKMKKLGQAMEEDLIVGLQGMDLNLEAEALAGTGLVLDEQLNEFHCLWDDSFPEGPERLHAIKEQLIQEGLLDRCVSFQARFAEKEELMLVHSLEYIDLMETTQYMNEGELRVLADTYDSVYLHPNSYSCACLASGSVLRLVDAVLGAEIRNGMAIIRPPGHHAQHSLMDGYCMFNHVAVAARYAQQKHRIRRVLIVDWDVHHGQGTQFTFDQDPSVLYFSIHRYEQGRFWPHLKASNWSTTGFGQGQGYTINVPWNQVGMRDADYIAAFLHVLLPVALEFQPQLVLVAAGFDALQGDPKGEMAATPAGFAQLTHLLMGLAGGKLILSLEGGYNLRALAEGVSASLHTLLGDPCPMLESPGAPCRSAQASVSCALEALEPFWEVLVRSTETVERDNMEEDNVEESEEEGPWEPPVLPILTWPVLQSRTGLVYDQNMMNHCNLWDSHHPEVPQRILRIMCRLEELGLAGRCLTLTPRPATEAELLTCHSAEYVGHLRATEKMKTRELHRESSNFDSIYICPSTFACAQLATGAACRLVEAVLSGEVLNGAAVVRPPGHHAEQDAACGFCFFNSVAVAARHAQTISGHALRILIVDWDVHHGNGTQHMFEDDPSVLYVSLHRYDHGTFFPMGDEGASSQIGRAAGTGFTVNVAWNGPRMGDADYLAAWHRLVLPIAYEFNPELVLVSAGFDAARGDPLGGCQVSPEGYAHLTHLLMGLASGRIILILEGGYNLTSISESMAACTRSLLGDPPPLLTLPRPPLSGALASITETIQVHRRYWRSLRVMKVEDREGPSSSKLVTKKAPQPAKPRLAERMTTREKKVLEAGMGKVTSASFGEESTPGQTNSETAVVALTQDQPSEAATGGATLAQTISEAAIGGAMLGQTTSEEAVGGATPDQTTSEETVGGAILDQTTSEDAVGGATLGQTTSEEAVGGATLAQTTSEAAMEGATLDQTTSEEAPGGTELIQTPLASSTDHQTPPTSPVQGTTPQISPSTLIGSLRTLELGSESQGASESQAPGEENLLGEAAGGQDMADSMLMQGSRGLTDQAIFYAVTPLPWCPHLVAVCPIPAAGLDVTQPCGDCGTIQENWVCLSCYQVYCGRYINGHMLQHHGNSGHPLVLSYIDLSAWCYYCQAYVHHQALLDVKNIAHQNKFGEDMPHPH
Assay: Inhibition of recombinant human HDAC6 expressed in baculovirus expression system using KI-104 as substrate incubated for 3 hrs by fluorescence-based assay
pEC50: −log10 of the molar value.
recorded-endpoint: pEC50

INSERT INTO results (smiles_representation, assayed_target, recorded_endpoint, endpoint_result) VALUES
  ('O=C(/C=C/c1cccc(S(=O)(=O)Nc2ccccc2)c1)NO', 'Protein deacetylase HDAC6 (Homo sapiens)', 'pEC50', 7.09);

---

system: Human immunodeficiency virus 1; experiment: Reversal of HIV-1 latency in human J-Lat 10.6 cells assessed as increase in GFP expression incubated for 24 hrs by flow cytometry; format: functional, organism-based; conditions: Human immunodeficiency virus 1, J-Lat 10.6, 24 h
recorded-endpoint: EC50 (nM)

INSERT INTO results (compound, measurement_units, endpoint_result) VALUES
  ('CC(=O)O[C@@]12C[C@@H](C)[C@@]3(O)[C@@H](C=C(CO)C[C@]4(O)C(=O)C(C)=C[C@@H]34)[C@@H]1C2(C)C [PROSTRATIN]', 'nM', 3.3);
